Taken from PubChem BioAssay.

# Experiment notes: calcium flux activation in mu-opioid HEK293 cells, confirmation, counter-screen for TRPC4 activator project, cell-based, HEK293 mu-opioid receptor line (AID 449723);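 note: counter screen cells carry the mu-opioid receptor alone and lack TRPC4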
# Measurement parameters: Fluo-4 calcium fluorescence, at 10 µM
Activity calls are given as the source filed them.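 Rule for the calls: active = hit in primary screen, with calcium signal over 5 SD above buffer well mean in both duplicates; inactive = the rest.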
Hi there, use one of these labels in your reply, thanks! Yes (active), No (inactive)

[
  {
    "Compound": "CC1CN(c2ccc([N+](=O)[O-])c3cccnc23)CC(C)N1 (centres undefined)",
    "Class name": "No"
  },
  {
    "Compound": "COc1ccc2[nH]cc(CCN(C)C)c2c1",
    "Class name": "No"
  },
  {
    "Compound": "O=C(c1ccc2c3c(cccc13)CC2)C1CCCN(CC2CC2)C1 (centres undefined)",
    "Class name": "No"
  },
  {
    "Compound": "Cc1ccc(NC(=S)NCCc2cnc[nH]2)cc1C",
    "Class name": "No"
  },
  {
    "Compound": "CCN1CCN(Cc2cc(Br)cc(Br)c2O)CC1",
    "Class name": "No"
  }
]

Q) Could you kindly confirm the outcome this assay logged for `CCOC(=O)C1(c2ccccc2)CCN(CC(=O)Nc2ccc(C)cc2)CC1` ?
A) No

Q) Could you kindly confirm the outcome this assay logged for `Cc1cccc(N=Cc2c(O)n(-c3ccccc3C)c(=O)[nH]c2=O)c1` ?
A) No

Q) Could you kindly confirm the outcome this assay logged for `COc1ccc(OC)c(N2Cc3ccccc3C2=N)c1` ?
A) No

Q) Could you kindly confirm the outcome this assay logged for Cc1ccccc1C(O)(Cc1ccccc1)C1CN2CCC1CC2 (centres undefined) ?
A) No

Q) Could you kindly confirm the outcome this assay logged for COC(=O)C(O)(c1ccc(NC(=S)NC(=O)c2ccc(Cl)cc2Cl)c(C)c1)C(F)(F)F (centres undefined) ?
A) No

Q) Could you kindly confirm the outcome this assay logged for `Nc1ccccc1-[n+]1c(-c2ccccc2)cc(-c2ccccc2)cc1-c1ccccc1` ?
A) No

Q) Could you kindly confirm the outcome this assay logged for CCN1CC2C3CCC(C)(O3)C2C1 (centres undefined) ?
A) No

Q) Could you kindly confirm the outcome this assay logged for `COC(=O)C1=CCCN(C)C1` ?
A) Yes

Q) Could you kindly confirm the outcome this assay logged for `CCOC(=O)c1cc(C)n(CCc2cnc[nH]2)c1C` ?
A) No

Q) Could you kindly confirm the outcome this assay logged for `Cc1cc(-c2ccccc2)cc(C)[n+]1Cc1ccccc1` ?
A) No

Q) Could you kindly confirm the outcome this assay logged for `Clc1ccc2c(c1)C(c1ccccc1Cl)=NCc1nnc(N3CCN(CCOc4ccccc4)CC3)n1-2` ?
A) No

Q) Could you kindly confirm the outcome this assay logged for Cc1ccc(C2CN(C)CC2C(=O)c2ccc(F)cc2)cc1 (centres undefined) ?
A) No

Q) Could you kindly confirm the outcome this assay logged for `COc1ccc(CNCCc2c[nH]c3ccccc23)cc1OC` ?
A) No

Q) Could you kindly confirm the outcome this assay logged for O=C(c1ccc(Cl)cc1)C1CCCN(C2CCSCC2)C1 (centres undefined) ?
A) No

----------
# Study target: Short transient receptor potential channel 4 (Mus musculus)
# Experiment notes: calcium flux activators in TRPC4/5HT1a cells, counter-screen for TRPC4 activator project, cell-based, second counter screen, HEK293 TRPC4/5HT1a, Fluo-4 (AID 434977);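 for activation: plate controls were assay buffer for no effect and maximal serotonin response for full effect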
# Measurement parameters: Fluo-4 calcium flux, at 10 µM; hits give high values
Calls of active or inactive are those of the source.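 How the source made its calls: active means calcium signal rise above buffer-control mean plus 5 SD in both duplicates, and also a hit in the primary screen; inactive means the rest.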
Observed property: activation

Solved cases (5 shown):
[
  {
    "Compound": "Nc1c([N+](=O)[O-])cc(F)c(N2CCNCC2)c1Br",
    "activation": "inactive"
  },
  {
    "Compound": "CCOc1c(Cl)cc(CNC(C)C(O)c2ccccc2)cc1OC (stereo not drawn)",
    "activation": "inactive"
  },
  {
    "Compound": "c1ccc2oc(N3CCNCC3)nc2c1",
    "activation": "24.8% (active)"
  },
  {
    "Compound": "CN1CCN(c2cccc3c2C(=O)c2ccccc2C3=O)CC1",
    "activation": "inactive"
  },
  {
    "Compound": "COc1ccc(C(=O)C2CCCN(C3CSCCSC3)C2)cc1OC (stereo not drawn)",
    "activation": "87.7% (active)"
  }
]

Lab note: `CCOC(=O)c1cc(C)n(CCc2cnc[nH]2)c1C` gave activation of 76% (active)

Lab note: `CCOC(=O)C1(CCc2ccccc2)CCN(Cc2cccc3c2OCO3)CC1` gave activation of inactive

Lab note: O=C(c1cccc(C(F)(F)F)c1)C1CCCN(Cc2ccccc2O)C1 (stereo not drawn) gave activation of inactive

Lab note: `CN(C)C1(CNC(=O)c2ccc(Cl)c(S(=O)(=O)NCc3ccco3)c2)CCCCC1` gave activation of inactive

Lab note: CC(Cc1ccccc1Sc1ccccc1O)N(C)C (stereo not drawn) gave activation of inactive
